# Test system: Staphylococcus aureus
# assay.info: Antimicrobial activity against […] Staphylococcus aureus ATCC 43300
# Type: functional
# applied.conditions: Staphylococcus aureus, ATCC 43300
Non-standard residues stand in square brackets, D forms with d. Residues, ends and D or L forms follow the SMILES beside them. Phg = N[C@H](C(=O)O)c1ccccc1
Could you please report measured MIC90 for the items listed next?
Please give the number followed by its unit.

Sure, the documented MIC90 for C[C@@H](O)[C@H]1C(=O)N2C(C(=O)O)=C(SCCNC=N)C[C@H]12 [IMIPENEM ANHYDROUS] is 4 µg/mL

Sure, the documented MIC90 for CC(=O)NC[C@H]1CN(c2ccc(N3CCOCC3)c(F)c2)C(=O)O1 is 2 µg/mL

Sure, the documented MIC90 for CC[C@H](C)[C@H](NC(=O)[C@H](CCCCN)NC(=O)[C@H](CCCCN)NC(=O)[C@@H](NC(=O)[C@@H](NC(=O)[C@H](CC(=O)O)NC(=O)[C@H](Cc1ccccc1)NC(=O)[C@H](CC(C)C)NC(=O)CN)[C@@H](C)CC)[C@@H](C)CC)C(=O)N[C@@H](C)C(=O)N[C@@H](CCC(=O)O)C(=O)N[C@@H](CO)C(=O)N[C@H](C(N)=O)c1ccccc1 (H-GLFDIIKKIAES[Phg]-NH2) is 8 µg/mL

Sure, the documented MIC90 for CC[C@H]1OC(=O)[C@H](C)[C@@H](O[C@H]2C[C@@](C)(OC)[C@@H](O)[C@H](C)O2)[C@H](C)[C@@H](O[C@@H]2O[C@H](C)C[C@H](N(C)C)[C@H]2O)[C@](C)(OC)C[C@@H](C)C(=O)[C@H](C)[C@@H](O)[C@]1(C)O is 8 µg/mL

Sure, the documented MIC90 for CN[C@H](CC(C)C)C(=O)N[C@H]1C(=O)N[C@@H](CC(N)=O)C(=O)N[C@H]2C(=O)N[C@H]3C(=O)N[C@H](C(=O)N[C@H](C(=O)O)c4cc(O)cc(O)c4-c4cc3ccc4O)[C@H](O)c3ccc(c(Cl)c3)Oc3cc2cc(c3O[C@@H]2O[C@H](CO)[C@@H](O)[C@H](O)[C@H]2O[C@H]2C[C@](C)(N)[C@H](O)[C@H](C)O2)Oc2ccc(cc2Cl)[C@H]1O is 2 µg/mL

Sure, the documented MIC90 for CN(C)c1ccc(O)c2c1C[C@H]1C[C@H]3[C@H](N(C)C)C(O)=C(C(N)=O)C(=O)[C@@]3(O)C(O)=C1C2=O is 8 µg/mL

====

Could you please report measured MBC50 for the items listed next?
# System: Streptococcus pyogenes
# assay.info: Antimicrobial activity against Streptococcus pyogenes ATCC 19615
# Format: functional
Non-standard residues stand in square brackets, D forms with d. Residues, ends and D or L forms follow the SMILES beside them. Phg = N[C@H](C(=O)O)c1ccccc1
Your answer should be a plain number; it is taken to be in mg/L.

Sure, the documented MBC50 for CC[C@H](C)[C@H](NC(=O)[C@H](CCCCN)NC(=O)[C@H](CCCCN)NC(=O)[C@@H](NC(=O)[C@@H](NC(=O)[C@H](CC(=O)O)NC(=O)[C@H](Cc1ccccc1)NC(=O)[C@H](CC(C)C)NC(=O)CN)[C@@H](C)CC)[C@@H](C)CC)C(=O)N[C@@H](C)C(=O)N[C@@H](CCC(=O)O)C(=O)N[C@@H](CO)C(=O)N[C@H](C(N)=O)c1ccccc1 (H-GLFDIIKKIAES[Phg]-NH2) is 4

Sure, the documented MBC50 for C[C@@H](O)[C@H]1C(=O)N2C(C(=O)O)=C(SCCNC=N)C[C@H]12 [IMIPENEM ANHYDROUS] is 1

====

# Test system: Enterococcus faecalis
# assay.info: Antimicrobial activity against vancomycin-susceptible Enterococcus faecalis ATCC 29212
# Type: functional
# applied.conditions: Enterococcus faecalis, ATCC 29212
Non-standard residues stand in square brackets, D forms with d. Residues, ends and D or L forms follow the SMILES beside them. Phg = N[C@H](C(=O)O)c1ccccc1
parameter.measured: MIC50 (µg/mL)
Your answer should be a plain number; it is taken to be in µg/mL.

Sure, the documented MIC50 for CC[C@H]1OC(=O)[C@H](C)[C@@H](O[C@H]2C[C@@](C)(OC)[C@@H](O)[C@H](C)O2)[C@H](C)[C@@H](O[C@@H]2O[C@H](C)C[C@H](N(C)C)[C@H]2O)[C@](C)(OC)C[C@@H](C)C(=O)[C@H](C)[C@@H](O)[C@]1(C)O is 8

Sure, the documented MIC50 for CN[C@H](CC(C)C)C(=O)N[C@H]1C(=O)N[C@@H](CC(N)=O)C(=O)N[C@H]2C(=O)N[C@H]3C(=O)N[C@H](C(=O)N[C@H](C(=O)O)c4cc(O)cc(O)c4-c4cc3ccc4O)[C@H](O)c3ccc(c(Cl)c3)Oc3cc2cc(c3O[C@@H]2O[C@H](CO)[C@@H](O)[C@H](O)[C@H]2O[C@H]2C[C@](C)(N)[C@H](O)[C@H](C)O2)Oc2ccc(cc2Cl)[C@H]1O is 1

Sure, the documented MIC50 for CN(C)c1ccc(O)c2c1C[C@H]1C[C@H]3[C@H](N(C)C)C(O)=C(C(N)=O)C(=O)[C@@]3(O)C(O)=C1C2=O is 8

Sure, the documented MIC50 for C[C@@H](O)[C@H]1C(=O)N2C(C(=O)O)=C(SCCNC=N)C[C@H]12 [IMIPENEM ANHYDROUS] is 4

Sure, the documented MIC50 for CC[C@H](C)[C@H](NC(=O)[C@H](CCCCN)NC(=O)[C@H](CCCCN)NC(=O)[C@@H](NC(=O)[C@@H](NC(=O)[C@H](CC(=O)O)NC(=O)[C@H](Cc1ccccc1)NC(=O)[C@H](CC(C)C)NC(=O)CN)[C@@H](C)CC)[C@@H](C)CC)C(=O)N[C@@H](C)C(=O)N[C@@H](CCC(=O)O)C(=O)N[C@@H](CO)C(=O)N[C@H](C(N)=O)c1ccccc1 (H-GLFDIIKKIAES[Phg]-NH2) is 8

Sure, the documented MIC50 for CC(=O)NC[C@H]1CN(c2ccc(N3CCOCC3)c(F)c2)C(=O)O1 is 1

====

# System: Enterococcus faecalis
# assay.info: Antimicrobial activity against vancomycin-susceptible Enterococcus faecalis ATCC 29212
# Type: functional
Non-standard residues stand in square brackets, D forms with d. Residues, ends and D or L forms follow the SMILES beside them. Phg = N[C@H](C(=O)O)c1ccccc1
Could you please report measured MBC50 for the items listed next?
Your answer should be a plain number; it is taken to be in µg/mL.

Sure, the documented MBC50 for CC[C@H](C)[C@H](NC(=O)[C@H](CCCCN)NC(=O)[C@H](CCCCN)NC(=O)[C@@H](NC(=O)[C@@H](NC(=O)[C@H](CC(=O)O)NC(=O)[C@H](Cc1ccccc1)NC(=O)[C@H](CC(C)C)NC(=O)CN)[C@@H](C)CC)[C@@H](C)CC)C(=O)N[C@@H](C)C(=O)N[C@@H](CCC(=O)O)C(=O)N[C@@H](CO)C(=O)N[C@H](C(N)=O)c1ccccc1 (H-GLFDIIKKIAES[Phg]-NH2) is 16

Sure, the documented MBC50 for CC(=O)NC[C@H]1CN(c2ccc(N3CCOCC3)c(F)c2)C(=O)O1 [LINEZOLID] is 2

Sure, the documented MBC50 for CN(C)c1ccc(O)c2c1C[C@H]1C[C@H]3[C@H](N(C)C)C(O)=C(C(N)=O)C(=O)[C@@]3(O)C(O)=C1C2=O [MINOCYCLINE] is 16

Sure, the documented MBC50 for CC[C@H]1OC(=O)[C@H](C)[C@@H](O[C@H]2C[C@@](C)(OC)[C@@H](O)[C@H](C)O2)[C@H](C)[C@@H](O[C@@H]2O[C@H](C)C[C@H](N(C)C)[C@H]2O)[C@](C)(OC)C[C@@H](C)C(=O)[C@H](C)[C@@H](O)[C@]1(C)O [CLARITHROMYCIN] is 16

Sure, the documented MBC50 for C[C@@H](O)[C@H]1C(=O)N2C(C(=O)O)=C(SCCNC=N)C[C@H]12 [IMIPENEM ANHYDROUS] is 16

Sure, the documented MBC50 for CN[C@H](CC(C)C)C(=O)N[C@H]1C(=O)N[C@@H](CC(N)=O)C(=O)N[C@H]2C(=O)N[C@H]3C(=O)N[C@H](C(=O)N[C@H](C(=O)O)c4cc(O)cc(O)c4-c4cc3ccc4O)[C@H](O)c3ccc(c(Cl)c3)Oc3cc2cc(c3O[C@@H]2O[C@H](CO)[C@@H](O)[C@H](O)[C@H]2O[C@H]2C[C@](C)(N)[C@H](O)[C@H](C)O2)Oc2ccc(cc2Cl)[C@H]1O [VANCOMYCIN] is 2
